experiment: Drug exposure in Sprague-Dawley rat brain at 3 mg/kg, po measured for 2 hrs by LC-MS/MS analysis; assay type: ADME, organism-based; conditions: read-out: Drug uptake
value type: concentration at 2 h (nM)

Known results for molecules:
molecule	value type	endpoint result
CN1[C@@H]2CCC[C@H]1C[C@H](NC(=O)c1cc(-c3ccc(C(F)(F)F)cc3)n(C)n1)C2	concentration at 2 h	140
COc1ccc(-c2cc(C(=O)N[C@H]3CCCN(C)C3)nn2C)c(Cl)c1	concentration at 2 h	1820
CN1CCC[C@@H](NC(=O)c2cc(-c3ccc(C(F)(F)F)cc3)n(C)n2)C1	concentration at 2 h	1910
CN1CCC[C@H](NC(=O)c2cc(-c3ccc(C(F)(F)F)cc3)n(C)n2)C1	concentration at 2 h	1090

(I) CN(C)C1(CNC(=O)c2cc(-c3ccc(C(F)(F)F)cc3)n(C)n2)CCCC1
(II) CN1CCC(NC(=O)c2cc(-c3ccc(C(F)(F)F)cc3)n(C)n2)C1 (racemic)
(III) CN1CCC(NC(=O)c2cc(-c3ccc(C(F)(F)F)cc3)n(C)n2)CC1
(IV) Cn1nc(C(=O)NCCN2CCCCC2)cc1-c1ccc(C(F)(F)F)cc1
Order the 4 molecules from highest to lowest concentration at 2 h. Enter labels, ranked according to the request. III, II, IV, I
(III: 2970 nM, II: 948 nM, IV: 524 nM, I: 30 nM)
